Tested on: Trypanosoma brucei brucei
procedure_text: Antitrypanosomal activity against Trypanosoma brucei brucei BF427 after 48 hrs by Alamar Blue-based assay
Assay type: functional
particulars: BF427, 48 h
In this section, each of the molecules is paired with its reported EC50.

{"compound_string": "O=C(Nc1ccn2cc(-c3ccccc3)nc2c1)N1CCCCC1", "relation_sign": "=", "EC50, nM": 2510}
{"compound_string": "O=C(Nc1ccn2cc(-c3cccc(F)c3F)nc2c1)N1CCCCC1", "relation_sign": "=", "EC50, nM": 720}
{"compound_string": "Cn1nc(C(C)(C)C)cc1C(=O)Nc1ccn2cc(-c3ccc(F)c(F)c3)nc2c1", "relation_sign": "=", "EC50, nM": 710}
{"compound_string": "O=C(Nc1ccn2cc(-c3cccc(F)c3)nc2c1)N1CCCC1", "relation_sign": "=", "EC50, nM": 730}
{"compound_string": "O=C(Nc1ccn2cc(-c3cccs3)nc2c1)N1CC[C@H](F)C1", "relation_sign": "=", "EC50, nM": 1000}
{"compound_string": "O=C(Nc1ccn2cc(-c3ccc(F)c(F)c3)nc2c1)N1CCCC1", "relation_sign": "=", "EC50, nM": 320}
{"compound_string": "O=C(Nc1ccn2cc(-c3cccc(F)c3)nc2c1)N1CCCCC1", "relation_sign": "=", "EC50, nM": 970}
{"compound_string": "O=C(Nc1ccn2cc(-c3ccc(F)c(F)c3)nc2n1)N1CC[C@H](F)C1", "relation_sign": ">", "EC50, nM": 20000}
{"compound_string": "Cc1noc(C)c1C(=O)Nc1ccn2cc(-c3ccc(F)c(F)c3)nc2c1", "relation_sign": ">", "EC50, nM": 20000}
{"compound_string": "O=C(Nc1ccn2cc(-c3cccc(F)c3F)nc2c1)N1CC[C@H](F)C1", "relation_sign": "=", "EC50, nM": 180}
{"compound_string": "N=C(N)c1ccc(OCCCCCOc2ccc(C(=N)N)cc2)cc1", "relation_sign": "=", "EC50, nM": 2.16}
{"compound_string": "O=C(Nc1ccn2cc(-c3cccc(F)c3F)nc2c1)N1CCCC1", "relation_sign": "=", "EC50, nM": 580}
{"compound_string": "O=C(Nc1ccn2cc(-c3ccc(F)c(F)c3)nc2c1)N1CCCCC1", "relation_sign": "=", "EC50, nM": 1200}

====

In this section, each of the compounds is paired with its reported log10(EC50).
Tested on: Trypanosoma brucei brucei
procedure_text: Antitrypanosomal activity against Trypanosoma brucei brucei BF427 after 48 hrs by Alamar Blue-based assay
Type: functional
particulars: BF427, 48 h
assay_readout: log10(EC50) (log10 of the value in nM)

{"compound_string": "O=C(Nc1ccn2cc(-c3cccc(F)c3)nc2c1)N1CC[C@H](F)C1", "assayed_system": "Trypanosoma brucei brucei", "observed_measurement": 2.20}
{"compound_string": "O=C(Nc1ccn2cc(-c3ccccc3)nc2c1)N1CC[C@H](F)C1", "assayed_system": "Trypanosoma brucei brucei", "observed_measurement": 2.79}
{"compound_string": "O=C(Nc1cc2nc(-c3ccc(F)c(F)c3)cn2cn1)N1CC[C@H](F)C1", "assayed_system": "Trypanosoma brucei brucei", "observed_measurement": 1.30}
{"compound_string": "Cn1nc(C(C)(C)C)cc1C(=O)Nc1cc2nc(-c3ccc(F)c(F)c3)cn2cn1", "assayed_system": "Trypanosoma brucei brucei", "observed_measurement": 3.84}
{"compound_string": "O=C(Nc1ccn2cc(-c3ccc(F)c(F)c3)nc2c1)N1CC[C@H](F)C1", "assayed_system": "Trypanosoma brucei brucei", "observed_measurement": 2.20}
{"compound_string": "O=C(Nc1ccn2cc(-c3ccccc3)nc2c1)N1CCCC1", "assayed_system": "Trypanosoma brucei brucei", "observed_measurement": 3.35}
{"compound_string": "O=C(Nc1ccn2cc(-c3ccc(F)c(F)c3)nc2c1)c1cccnc1", "assayed_system": "Trypanosoma brucei brucei", "observed_measurement": 3.80}
